- System: 324938-238-R-J1-PDC complex spheroid viability;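 also: spheroids also contain HUVEC and human MSCs and agents combined with iadademstat; spheroids exposed to agents for 7 days before readout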
- assay-explanation: Anticancer human tumor 324938-238-R-J1-PDC patient-derived bladder carcinoma cell line growth inhibition; active = viability on the fitted dose curve at most 10% of control; inactive = the rest
- run-conditions: second compound 0.316 µM; first compound 0.03 µM
Output constraint: value belongs to true (1) for active, false (0) for inactive

compound="Nc1ccn(C2OC(CO)C(O)C2(F)F)c(=O)n1 (configuration not stated) + NC1CC1c1ccc(-c2cccc(O)c2)cc1" category_label="true (1)"

Outcome logged for CCN(c1cc(-c2ccc(CN3CCOCC3)cc2)cc(C(=O)NCc2c(C)cc(C)[nH]c2=O)c1C)C1CCOCC1 + NC1CC1c1ccc(-c2cccc(O)c2)cc1 in this assay: false (0)

In this assay, the call recorded for COc1cc(C2c3cc4c(cc3C(OC3OC5COC(C)OC5C(O)C3O)C3COC(=O)C23)OCO4)cc(OC)c1O (configuration not stated) + NC1CC1c1ccc(-c2cccc(O)c2)cc1 was what? false (0)
